So I've got a bunch of binders here, and I need their pKd values.
- EXPERIMENTAL TARGET: T1, soluble human ASGR-1 carbohydrate binding domain (CBD; amino acid residues 154-281; N-terminal 6xHis tag) (human, UniProt P07306 154-281)
- T1 construct: also called ASGR-1 CBD
- T1 sequence: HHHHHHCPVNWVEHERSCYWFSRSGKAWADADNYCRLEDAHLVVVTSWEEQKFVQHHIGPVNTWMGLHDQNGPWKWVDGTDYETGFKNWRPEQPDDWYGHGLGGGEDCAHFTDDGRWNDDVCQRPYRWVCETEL
- TEST DETAILS: Octet BLI, mAb on AR2G tips, 1:1 fit
One number for each entry, as −log10 of the molar value.

List the reported pKd of each binder below.
1. 194C10 (antibody, V domains shown, mAb) VH: QVQLQQWGAGLLKPSETLSLTCAVSGGSFRYYYWSWIRQPPGKGLEWFGEINHSGSTNYNPSLKSRVTISIDTSKNQFSLKLRSVTAADTAVYYCARDYGAFDIWGQGTMVTVSS VL: EIVLTQSPGTLSLSPGERATLSCRASPSVNSGYLAWYQQKPGQTPRLLIFGASSRATGIPDRFSASGSGADFTLTISRLEPEDFAVYFCQQYESSPWTFGQGTKVEIK
2. 176H4 (antibody, V domains shown, mAb) VH: QVQLVESGGGVVQPGRSLRLSCAASGFTFSSYGMHWVRQAPGKGLEWVAIIWYDGSYKYYADSVKGRFTISRDNSKNTLYLQMSSLRAEDTAVYYCARDAHDFWSGYFAYWGQGALVTVSS VL: DIVMTQTPLSLSVTPGQPASISCKSSQSLLHGDGKTYLYWYLQKPGQPPQLLIYEVSNRFSGVPDRFSGSGSGTDFTLKISRVEAEDVGIYYCMQSIQIPWTFGQGTRVEIK
3. 194C1 (antibody, V domains shown, mAb) VH: QVQLVESGGGVVQPGRSLRLSCAASGFTFSSYGMHWVRQAPGKGLEWVAVIWYDGSNEHYADSVKGRFTISRDNSKNTLYLQMNSLRAEDTAVYYCARNRGVGYYGLDVWGQGTTVTVSS VL: DIQMTQSPSSLSASVGDRVTITCRASQGISNYLAWFQQKPGKAPKSLIYAASSLQSGVPSKFSGSGSGTDFTLTISSLQPEDFATYYCLHYLTYPLTFGGGTKVEIK
4. 7F4 (antibody, V domains shown, mAb) VH: QLQLQESGPGLVKPSETLSLTCTVSGGSISRSSYYWGWIRQPPGKGLEWIGNIYYSGATYYNPSLKSRVTISVDTSTNQFSLKLSSVTAADTAVYYCARHSGSWSLDYWGQGTLVTVSS VL: DIQMTQSPSSLSASVGDRVTITCRTSQGIRNDLGWYQQKPGKAPKRLIYAASNLQSGVPSRFSGSGSGTEFTLTISSLQPEDFATYYCLQHSAYPLTFGGGTKVEIK
5. 5E5 (antibody, V domains shown, mAb) VH: QVQLVESGGGVVQPGRSLRLSCAASGFTFSNYVMHWVRQAPGKGLEWVAVIWYDGSNKYYADSVKGRFTISRDNSKNTLYLQMNSLRAEDTAVYYCTREVYSSGWYDYGMDVWGQGTTVTVSS VL: DIQMTQSPSSLSASVGDRVTITCRASQGIRNDLGWYQQKPGKAPKRLIYAASSLQSGVPSRFSGSGSGTEFTLTISSLQPEDFATYYCLQHYSYPRTFGQGTKVEVK

[8.40, 9.10, 8.89, 8.92, 8.12]

Where do the numbers come from? From patent US20190248902A1.
